Sourced from the supplement of paper PMC8149375

Entries and their minimum viability across doses values follow.
# Test system: SN12C
# procedure text: minimum viability across doses, drug + dasatinib, relative to DMSO (fraction); higher = less growth inhibition
# test parameters: treatment: drug + dasatinib (fixed dose, not stated); 5 days
# print the numeric value only

Field: example entries. Status: answers known.
[
  {
    "compound": "O=C(NC[C@H](O)CO)c1ccncc1Nc1ccc(I)cc1F + Cc1nc(Nc2ncc(C(=O)Nc3c(C)cccc3Cl)s2)cc(N2CCN(CCO)CC2)n1",
    "recorded result": 0.227
  },
  {
    "compound": "CNC(=O)c1cc(Oc2ccc(NC(=O)Nc3ccc(Cl)c(C(F)(F)F)c3)cc2)ccn1.Cc1ccc(S(=O)(=O)O)cc1 [Sorafenib (Nexavar)] + Cc1nc(Nc2ncc(C(=O)Nc3c(C)cccc3Cl)s2)cc(N2CCN(CCO)CC2)n1",
    "recorded result": 0.265
  },
  {
    "compound": "COc1ccc(-c2cc3c(C)nc(N)nc3n([C@H]3CC[C@H](OCCO)CC3)c2=O)cn1 + Cc1nc(Nc2ncc(C(=O)Nc3c(C)cccc3Cl)s2)cc(N2CCN(CCO)CC2)n1",
    "recorded result": 0.0663
  },
  {
    "compound": "O=c1cc(-c2cccc3c2Sc2ccccc2S3)oc(N2CCOCC2)c1 + Cc1nc(Nc2ncc(C(=O)Nc3c(C)cccc3Cl)s2)cc(N2CCN(CCO)CC2)n1",
    "recorded result": 0.659
  },
  {
    "compound": "C=CC(=O)Nc1cccc(Oc2nc(Nc3ccc(N4CCN(C)CC4)cc3OC)ncc2Cl)c1 [WZ4002] + Cc1nc(Nc2ncc(C(=O)Nc3c(C)cccc3Cl)s2)cc(N2CCN(CCO)CC2)n1",
    "recorded result": 0.0353
  }
]

Enquiry: Requested read-out: minimum viability across doses. Entry: CN1CCN(c2nc(C3=C(c4c[nH]c5ccccc45)C(=O)NC3=O)c3ccccc3n2)CC1 [Sotrastaurin (AEB071)] + Cc1nc(Nc2ncc(C(=O)Nc3c(C)cccc3Cl)s2)cc(N2CCN(CCO)CC2)n1
Return: 0.661

Enquiry: Follow-up item: COc1ccc(COc2cc3oc(=O)c4cc(C(C)O)ccc4c3cc2OC)cc1 (stereo not drawn) [Palomid 529] + Cc1nc(Nc2ncc(C(=O)Nc3c(C)cccc3Cl)s2)cc(N2CCN(CCO)CC2)n1
Return: 0.707

Enquiry: Follow-up item: CN1CCN(c2ccc([N+](=O)[O-])c3no[n+]([O-])c23)CC1 + Cc1nc(Nc2ncc(C(=O)Nc3c(C)cccc3Cl)s2)cc(N2CCN(CCO)CC2)n1
Return: 0.687

Enquiry: Follow-up item: c1ccc2c(-c3cnn4cc(-c5ccc(N6CCNCC6)cc5)cnc34)ccnc2c1 + Cc1nc(Nc2ncc(C(=O)Nc3c(C)cccc3Cl)s2)cc(N2CCN(CCO)CC2)n1
Return: 0.00173

Enquiry: Follow-up item: Nc1nc(N)c2nc(-c3cccc(O)c3)cnc2n1 + Cc1nc(Nc2ncc(C(=O)Nc3c(C)cccc3Cl)s2)cc(N2CCN(CCO)CC2)n1
Return: 0.183

Enquiry: Follow-up item: Nc1cc(C(F)(F)F)c(-c2cc(N3CCOCC3)nc(N3CCOCC3)n2)cn1 [BKM120 (NVP-BKM120)] + Cc1nc(Nc2ncc(C(=O)Nc3c(C)cccc3Cl)s2)cc(N2CCN(CCO)CC2)n1
Return: 0.0529

Enquiry: Follow-up item: NC1(Cc2ccc(Cl)cc2)CCN(c2ncnc3[nH]ccc23)CC1 + Cc1nc(Nc2ncc(C(=O)Nc3c(C)cccc3Cl)s2)cc(N2CCN(CCO)CC2)n1
Return: 0.356

Enquiry: Follow-up item: CCOc1cc2ncc(C#N)c(Nc3ccc(F)c(Cl)c3)c2cc1NC(=O)/C=C/CN(C)C [Pelitinib (EKB-569)] + Cc1nc(Nc2ncc(C(=O)Nc3c(C)cccc3Cl)s2)cc(N2CCN(CCO)CC2)n1
Return: 0.00631

Enquiry: Follow-up item: COc1cc2c(Oc3ccc4[nH]c(C)cc4c3F)ncnc2cc1OCCCN1CCCC1 [Cediranib (AZD2171)] + Cc1nc(Nc2ncc(C(=O)Nc3c(C)cccc3Cl)s2)cc(N2CCN(CCO)CC2)n1
Return: 0.0758

Enquiry: Follow-up item: C=CCc1cccc(/C=N/NC(=O)CN2CCN(Cc3ccccc3)CC2)c1O [PAC-1] + Cc1nc(Nc2ncc(C(=O)Nc3c(C)cccc3Cl)s2)cc(N2CCN(CCO)CC2)n1
Return: 0.0519

Enquiry: Follow-up item: CN(C)Cc1cccc(N/C(=C2\C(=O)Nc3cc(C(=O)N(C)C)ccc32)c2ccccc2)c1 + Cc1nc(Nc2ncc(C(=O)Nc3c(C)cccc3Cl)s2)cc(N2CCN(CCO)CC2)n1
Return: 0.229

Enquiry: Follow-up item: CN(C)C1CCN(C(=O)c2ccc(NC(=O)Nc3ccc(-c4nc(N5CCOCC5)nc(N5CCOCC5)n4)cc3)cc2)CC1 + Cc1nc(Nc2ncc(C(=O)Nc3c(C)cccc3Cl)s2)cc(N2CCN(CCO)CC2)n1
Return: 0.107

Enquiry: Follow-up item: CC(C)(C)Cn1c(N)nc2ccc(-c3[nH]c(C(C)(C)C)nc3-c3ccc(F)cc3)nc21.CS(=O)(=O)O.CS(=O)(=O)O + Cc1nc(Nc2ncc(C(=O)Nc3c(C)cccc3Cl)s2)cc(N2CCN(CCO)CC2)n1
Return: 0.54
